Target: HLA-A*02 (Homo sapiens, UniProt P04439, D140Y/D185E/D98H/E176V/E277Q/G131W/G231S/I119V/I121R/I166T/I218V/L300P/N151K/N90K/P208A/P217A/Q86G/Q94H/R138H/R169H)
Test: MHC binding assay, UV-ligand exchange with beta2m ELISA, HLA-A*02
Settings: binding to HLA-A*02 ranged by peptide exchange yield (UV-ligand exchange, beta2m ELISA)
observation type: Peptide exchange

Use the examples below as a reference point.
[[record]]
substance = "69 (GIYDGILHSI; listed as Homo sapiens) [compound 69]"
observation_type = "Peptide exchange"
result = "+++ (50%-75% = +++)"

[[record]]
substance = "83 (ELLEYLPQL; listed as Homo sapiens) [compound 83]"
observation_type = "Peptide exchange"
result = "+++ (50%-75% = +++)"

[[record]]
substance = "70 (GLFSQHFNL; listed as Homo sapiens) [compound 70]"
observation_type = "Peptide exchange"
result = "+++ (50%-75% = +++)"

[[record]]
substance = "1 (PLWGKVFYL; listed as Homo sapiens) [compound 1]"
observation_type = "Peptide exchange"
result = "++ (20%-49% = ++)"


Then this substance:
**Q:** Please give the documented Peptide exchange of 50 (EYALLYHTL; listed as Homo sapiens) [compound 50]
**A:** ++ (20%-49% = ++)

----------
Test system: HLA-A*24
Experiment: MHC binding assay, UV-ligand exchange with beta2m ELISA, HLA-A*24
Design: species or system human
Settings: binding to HLA-A*24 ranged by peptide exchange yield (UV-ligand exchange, beta2m ELISA)
observation type: Peptide exchange

Use the examples below as a reference point.
[[record]]
substance = "367 (LYQDHMQYI; listed as Homo sapiens) [compound 367]"
observation_type = "Peptide exchange"
result = "++ (20%-49% = ++)"

[[record]]
substance = "205 (VYPVVLNQI; listed as Homo sapiens) [compound 205]"
observation_type = "Peptide exchange"
result = "+++ (50%-75% = +++)"

[[record]]
substance = "116 (AYVIAVHLF; listed as Homo sapiens) [compound 116]"
observation_type = "Peptide exchange"
result = "++++ (>=75% = ++++)"

[[record]]
substance = "241 (SYVKVLHHL; listed as Homo sapiens) [compound 241]"
observation_type = "Peptide exchange"
result = "+++ (50%-75% = +++)"

[[record]]
substance = "266 (KYTDWTEFL; listed as Homo sapiens) [compound 266]"
observation_type = "Peptide exchange"
result = "+++ (50%-75% = +++)"


**Q:** State measured Peptide exchange of the substance 186 (VFTTSSNIF; listed as Homo sapiens) [compound 186] with HLA-A*24.
**A:** ++++ (>=75% = ++++)

**Q:** State measured Peptide exchange of the substance 244 (VHFEDTGKTLLF; listed as Homo sapiens) [compound 244] with HLA-A*24.
**A:** +++ (50%-75% = +++)

**Q:** State measured Peptide exchange of the substance 247 (SFTKTSPNF; listed as Homo sapiens) [compound 247] with HLA-A*24.
**A:** +++ (50%-75% = +++)

**Q:** State measured Peptide exchange of the substance 254 (KYLESSATF; listed as Homo sapiens) [compound 254] with HLA-A*24.
**A:** +++ (50%-75% = +++)

**Q:** State measured Peptide exchange of the substance 264 (LYTETRLQF; listed as Homo sapiens) [compound 264] with HLA-A*24.
**A:** ++++ (>=75% = ++++)

**Q:** State measured Peptide exchange of the substance 357 (QFITSTNTF; listed as Homo sapiens) [compound 357] with HLA-A*24.
**A:** ++++ (>=75% = ++++)

**Q:** State measured Peptide exchange of the substance 248 (AFPTFSVQL; listed as Homo sapiens) [compound 248] with HLA-A*24.
**A:** ++++ (>=75% = ++++)

**Q:** State measured Peptide exchange of the substance 212 (SYAPPSEDLF; listed as Homo sapiens) [compound 212] with HLA-A*24.
**A:** ++ (20%-49% = ++)

**Q:** State measured Peptide exchange of the substance 191 (TYPDGTYTGRIF; listed as Homo sapiens) [compound 191] with HLA-A*24.
**A:** +++ (50%-75% = +++)

**Q:** State measured Peptide exchange of the substance 181 (VYPPYLNYL; listed as Homo sapiens) [compound 181] with HLA-A*24.
**A:** +++ (50%-75% = +++)

**Q:** State measured Peptide exchange of the substance 96 (YYTQYSQTI; listed as Homo sapiens) [compound 96] with HLA-A*24.
**A:** ++++ (>=75% = ++++)

**Q:** State measured Peptide exchange of the substance 209 (AFIETPIPLF; listed as Homo sapiens) [compound 209] with HLA-A*24.
**A:** ++++ (>=75% = ++++)

**Q:** State measured Peptide exchange of the substance 115 (RYLNKSFVL; listed as Homo sapiens) [compound 115] with HLA-A*24.
**A:** +++ (50%-75% = +++)

**Q:** State measured Peptide exchange of the substance 183 (PYLQDVPRI; listed as Homo sapiens) [compound 183] with HLA-A*24.
**A:** +++ (50%-75% = +++)

**Q:** State measured Peptide exchange of the substance 369 (VYTHEVVTL; listed as Homo sapiens) [compound 369] with HLA-A*24.
**A:** +++ (50%-75% = +++)

**Q:** State measured Peptide exchange of the substance 387 (KYTEKLEEI; listed as Homo sapiens) [compound 387] with HLA-A*24.
**A:** +++ (50%-75% = +++)

**Q:** State measured Peptide exchange of the substance 138 (VYNAVSTSF; listed as Homo sapiens) [compound 138] with HLA-A*24.
**A:** ++ (20%-49% = ++)

----------
Biological target: HLA-A*02 (Homo sapiens, UniProt P04439, D140Y/D185E/D98H/E176V/E277Q/G131W/G231S/I119V/I121R/I166T/I218V/L300P/N151K/N90K/P208A/P217A/Q86G/Q94H/R138H/R169H)
Assay: MHC binding assay, UV-ligand exchange with beta2m ELISA, HLA-A*02
Details: binding to HLA-A*02 ranged by peptide exchange yield (UV-ligand exchange, beta2m ELISA)
observation type: Peptide exchange

Use the examples below as a reference point.
[[record]]
substance = "31 (ALSDETKNNWEV; listed as Homo sapiens) [compound 31]"
result = "++++ (>=75% = ++++)"

[[record]]
substance = "80 (TLDEYLTYL; listed as Homo sapiens) [compound 80]"
result = "+++ (50%-75% = +++)"

[[record]]
substance = "33 (LLLPLLPPLSPSLG; listed as Homo sapiens) [compound 33]"
result = "+++ (50%-75% = +++)"

[[record]]
substance = "12 (GLIYEETRGV; listed as Homo sapiens) [compound 12]"
result = "++ (20%-49% = ++)"

[[record]]
substance = "62 (SLFNQEVQI; listed as Homo sapiens) [compound 62]"
result = "+++ (50%-75% = +++)"

[[record]]
substance = "324 (AIFDFCPSV; listed as Homo sapiens) [compound 324]"
result = "++++ (>=75% = ++++)"

[[record]]
substance = "36 (KLYGIEIEV; listed as Homo sapiens) [compound 36]"
result = "++++ (>=75% = ++++)"

[[record]]
substance = "58 (ALDDSLTSL; listed as Homo sapiens) [compound 58]"
result = "++ (20%-49% = ++)"

[[record]]
substance = "61 (HLPDFVKQL; listed as Homo sapiens) [compound 61]"
result = "++ (20%-49% = ++)"

[[record]]
substance = "20 (ALDGHLYAI; listed as Homo sapiens) [compound 20]"
result = "+++ (50%-75% = +++)"


**Q:** Please give the documented Peptide exchange of 48 (TLDHKPVTV; listed as Homo sapiens) [compound 48]
**A:** ++ (20%-49% = ++)

**Q:** Please give the documented Peptide exchange of 81 (VLFLGKLLV; listed as Homo sapiens) [compound 81]
**A:** ++ (20%-49% = ++)

**Q:** Please give the documented Peptide exchange of 16 (HLYNNEEQV; listed as Homo sapiens) [compound 16]
**A:** ++ (20%-49% = ++)

**Q:** Please give the documented Peptide exchange of 66 (FITDFYTTV; listed as Homo sapiens) [compound 66]
**A:** +++ (50%-75% = +++)

**Q:** Please give the documented Peptide exchange of 53 (SLLSHVIVA; listed as Homo sapiens) [compound 53]
**A:** +++ (50%-75% = +++)

**Q:** Please give the documented Peptide exchange of 44 (GLLWQIIKV; listed as Homo sapiens) [compound 44]
**A:** ++ (20%-49% = ++)
